Field: normalised viability. Provide a value for each of the compounds that follow.
Test system: HDQ-P1
Assay: normalised viability (% of control), CellTiter-Blue; higher = more viable cells (about 100 = DMSO control)
Conditions: incubation time: 72 h
Numbers only, in %.

Known normalised viability results, listed for orientation:
*Q* Return value of normalised viability for input CCNC(=O)c1noc(-c2cc(C(C)C)c(O)cc2O)c1-c1ccc(CN2CCOCC2)cc1 [NVP-AUY922] (100 nM) , no commentary.
*A* 31.8

*Q* Return value of normalised viability for input Cn1cc(C2=C(c3cn(C4CCN(Cc5ccccn5)CC4)c4ccccc34)C(=O)NC2=O)c2ccccc21 [Enzastaurin] (1000 nM) , no commentary.
*A* 81.2

*Q* Return value of normalised viability for input CNC(=O)c1ccccc1Sc1ccc2c(/C=C/c3ccccn3)n[nH]c2c1 [Axitinib] (1000 nM) , no commentary.
*A* 76.8

Record normalised viability per entry; entries follow.
1. C=CCN(/C=C1/C(=O)O[C@H](COC)[C@@]2(C)C1=C(O)C(=O)C1=C2[C@H](OC(C)=O)C[C@]2(C)C(=O)CC[C@@H]12)CC=C [PX-866] (1000 nM)
2. CO[C@@]12[C@H](COC(N)=O)C3=C(C(=O)C(C)=C(N)C3=O)N1C[C@@H]1N[C@@H]12 [Mitomycin C] (1000 nM)
3. COc1ccc(S(=O)(=O)Nc2cccnc2Nc2ccc(O)cc2)cc1 [ABT-751] (1000 nM)
4. CC(=O)[C@]1(O)Cc2c(O)c3c(c(O)c2[C@@H](O[C@H]2C[C@H](N)[C@H](O)[C@H](C)O2)C1)C(=O)c1ccccc1C3=O [Idarubicin] (100 nM)
5. CC[C@H](CO)Nc1nc(NCc2ccccc2)c2ncn(C(C)C)c2n1 [Roscovitine] (1000 nM)

*A*
86.3
88.9
51.3
78.3
104
